Collected polymerase ribozyme fitness (log ratio) values appear next to each entry.
B1: TPR t1 (parent)
chain: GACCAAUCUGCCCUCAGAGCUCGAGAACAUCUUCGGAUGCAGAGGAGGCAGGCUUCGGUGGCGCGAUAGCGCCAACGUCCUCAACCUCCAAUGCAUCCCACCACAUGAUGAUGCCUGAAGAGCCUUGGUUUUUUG

Variants of: B1
Assay Notes: polymerase ribozyme fitness, log enrichment relative to wild type (log ratio); higher = more active; in vitro selection for triplet polymerase activity
Experimental Endpoint: polymerase ribozyme fitness (log ratio)

• U78C U87C = 0.532
• C13G G60C G77U C101A G120C = -1.78
• A6U G69U = 0.777
• G39A C72U C99U G120A U126C = -3.09
• A5U G52U U54A = -1.51
• C80G A119U = -2.85
• C3A G10U G69U C72U C101U = -1.82
• C49U G71A = -1.46
• C3G C88G U112G = -2.52
• G51U C56A G63C C98U C99U C124A U131G = -7.53
• C64A C86U C98U = -7.04
• A5C A84G = -1.64
• C40A C85G C88U U129G = -3.87
• G23A C79A G110C U125G = -6.79
• C8U C104U = 0.275
• G25C G63U C99A C115A = -6.39
• C70U G93C C115U = -3.35
• G36A G63A C94U U132A = -1.7
• C8G G58A C70U U96A = -1.13
• U78C C101A = -0.679
• A2G C13G C123G = 1.11
• C34G C49U C97U C114G = -7.24
• G23C A27C C53U U54C C62A C88G C99U C124U U130A U131G = -7.2
• C72U U112A = 0.821
• A50C G57U G69A G120A G127A = -3.95
• G19U A43U G47U U112A G120A = -2.08
• U59A C70G = -5.27
• C28U C49G U129A = -5.15
• A46U C56A C72G G93A G120A C123U = -4.15
• C12U C20U A43U C72U C82A U112A C114G = -2.38
• U78C A84C U96G U116G = -3.6
• C8A C115G = -0.0701
• C12U G19A C56G U130C = -2.66
• C31A G36C G60C C72G C98A C99A C124U G128U = -7.42
• C3G C115A = -2.96
• C28U G93A C101U = -3.39
• C3A A5C C115A = 1.15
• U7G A43U G48U G60C C115A U126A = -3.03
• U38G C49A G77U C85G C115A = -3.84
